Some molecules, each annotated with its measured IC50.
# target_under_test: EML4-ALK-BaF3 (Homo sapiens, UniProt Q9UM73)
# Construct: expressed in transfected cells; host or cells: Ba/F3 cells; the other entry of the earlier key: EML4 (Q9HC35, Echinoderm microtubule-associated protein-like 4)
# Sequence (Q9UM73 1058-1620 limits assumed): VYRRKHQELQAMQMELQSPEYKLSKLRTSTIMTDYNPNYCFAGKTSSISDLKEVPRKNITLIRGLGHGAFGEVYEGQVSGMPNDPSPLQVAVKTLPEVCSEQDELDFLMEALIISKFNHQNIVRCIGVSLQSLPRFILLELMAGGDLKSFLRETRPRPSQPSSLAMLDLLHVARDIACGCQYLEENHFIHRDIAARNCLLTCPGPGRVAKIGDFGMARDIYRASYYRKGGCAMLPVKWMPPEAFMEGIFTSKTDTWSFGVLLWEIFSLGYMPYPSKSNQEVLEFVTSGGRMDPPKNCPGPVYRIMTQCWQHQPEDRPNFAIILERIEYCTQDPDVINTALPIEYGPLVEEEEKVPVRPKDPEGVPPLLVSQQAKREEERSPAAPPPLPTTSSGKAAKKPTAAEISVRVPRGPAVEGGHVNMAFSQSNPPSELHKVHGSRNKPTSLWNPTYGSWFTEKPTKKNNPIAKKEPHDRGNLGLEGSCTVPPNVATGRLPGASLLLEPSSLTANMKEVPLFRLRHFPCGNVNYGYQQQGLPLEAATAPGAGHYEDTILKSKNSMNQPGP
# assay_remarks: Growth inhibition of EML4-ALK transformed BaF3 cells (MTS)
# Type: cell-based
# condition_details: EML4-ALK-BaF3 cells, 48 hours, MTS; Table 11
# Method: If compounds can inhibit the activity of ALK kinase or the activity of ALK signaling pathway, they can inhibit the growth of ALK transformed Ba/F3 cells. […] The broad-spectrum toxicity of compounds can be evaluated by determining the effect of the compounds on the growth of wild type BaF3 cells. […] 4) Calculation of IC50 value: the semi inhibitory concentration of the compound acting on the cells was calculated using GradPad Prism 5 software according to the cell inhibitory rate measured.

Examples with their reported IC50 follow.
COC(=O)c1ccccc1Sc1nc(Nc2ccc(N3CCC(N4CCCC4)CC3)cc2OC)nc2cc[nH]c12; ~2880 nM
CCC(C)OC(=O)c1ccccc1Nc1nc(Nc2ccc(N3CCC(N4CCN(C)CC4)CC3)cc2OC)nc2cc[nH]c12 (stereo not shown); ~446 nM
COc1cc(N2CCN(C)CC2)ccc1Nc1nc(NC2CC2)c2[nH]ccc2n1; ~2550 nM

Next molecule, IC50 to be filled in.
Recorded IC50 for CCNc1nc(Nc2ccc(N3CCN(C)CC3)cc2OC)nc2cc[nH]c12 , please?
> 10000 nM
